- Test system: Human immunodeficiency virus 1
- protocol_description: Inhibition of HIV-1 GFP tagged Vif expressed in 293FT cells co-expressing HA-tagged A3G assessed as downregulation of GFP-Vif expression at 50 uM incubated for 16 hrs by immunoblotting assay
- Format: cell-based
Calls of active or inactive are those of the source. The rule behind the calls is not given here.
The reply should be one of these categories: T (active), F (inactive)

Query: Per the assay record, what outcome was assigned to `COc1ccccc1NC(=O)c1ccccc1Sc1ccc([N+](=O)[O-])cc1` ?
Response: T

Query: Please indicate how the test categorized `COc1ccccc1NC(=O)c1ccc(Sc2ccc([N+](=O)[O-])cc2)cc1Cl` .
Response: T

Query: Which result was noted for this compound in the test: `COc1ccccc1NC(=O)c1ccccc1S(=O)(=O)c1ccc([N+](=O)[O-])cc1`
Response: T

Query: Tell me the assay call for `COc1ccccc1NC(=O)c1ccccc1Cl` please.
Response: F

Query: State the result this test recorded for `COc1ccccc1NC(=O)c1ccc(C)nc1Sc1ccc([N+](=O)[O-])cc1` .
Response: T

Query: Give the logged outcome of this assay for the following compound: `COc1ccccc1NC(=O)c1ccccc1S(=O)(=O)c1ccc(C(=O)[O-])cc1.C[N+](C)(C)CCO`
Response: F
